- STUDY SYSTEM: T1, recombinant human PVRIG-human IgG1 Fc fusion protein (human)
- T1 construct: no linker is told; also called human PVRIG-Fc fusion protein
- T1 sequence (chain, as listed by the source limits assumed): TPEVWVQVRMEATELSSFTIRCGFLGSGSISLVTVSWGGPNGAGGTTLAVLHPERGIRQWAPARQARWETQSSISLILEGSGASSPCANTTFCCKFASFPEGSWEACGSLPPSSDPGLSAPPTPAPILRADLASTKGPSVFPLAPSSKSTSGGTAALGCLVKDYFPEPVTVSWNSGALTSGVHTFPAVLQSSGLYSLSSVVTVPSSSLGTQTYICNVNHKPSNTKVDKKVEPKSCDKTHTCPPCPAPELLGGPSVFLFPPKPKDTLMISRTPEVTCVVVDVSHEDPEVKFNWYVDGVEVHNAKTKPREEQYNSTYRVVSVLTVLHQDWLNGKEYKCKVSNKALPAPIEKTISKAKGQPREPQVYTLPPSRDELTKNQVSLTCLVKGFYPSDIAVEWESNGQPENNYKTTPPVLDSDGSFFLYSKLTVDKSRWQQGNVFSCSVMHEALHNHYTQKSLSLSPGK
- ASSAY NAME: SPR (Biacore), human PVRIG-human IgG1 Fc on chip, antibody in flow, 1:1 model
Parameter: kon. Scope: all listed entries.
Kindly answer with a numeric value in M⁻¹ s⁻¹, unit omitted.

Example results:
• Antibody 1 (antibody, V domains shown, Murine monoclonal antibody from hybridoma ascites, purified on Protein G; also called murine antibody Antibody 1) VH: QVQLQQSGAELMKPGASVKISCKATGYTFSTFAIDWIKQRPGPGLAWIGEILPGINNTNYNEKFKGKATFTADTSSNTAYMHLSSLTSEDSAVYYCSTYWFAYWGQGTLVTVSA VL: DIVMTQSPSSLSVSAGEKVTMTCKSSQSLLNSGNQKNYLAWYQQKPGQPPKLLMYGASTRESGVPDRFTGSGSGTDFTLTISSVQAEDLAVYYCQNAHSYPPTFGAGTKLELK = 133000
• Antibody 4-hu4 (antibody, human IgG4 S228P, kappa, V domains shown, Humanized Antibody 4; heavy chain IgG4 with S228P already in the entry) VH: EVQLVQSGAEVKKPGSSVKVSCKASGGTFSSFSIEWVRQAPGQGLEWIGEILPGSNSTNYNEKFKGRVTFTADESTSTAYMELSSLRSEDTAVYYCSSYWFAYWGQGTLVTVSS VL: DIVMTQSPDSLAVSLGERATINCKSSQSLLNSGNQKNYLAWYQQKPGQPPKLLIYGASTRESGVPDRFSGSGSGTDFTLTISSLQAEDVAVYYCQNAHSYPPTFGQGTKLEIKR = 188000
• Antibody 3 (antibody, V domains shown, Murine monoclonal antibody from hybridoma ascites; also called murine antibody Antibody 3) VH: EVQLQQSGPELVKPGASMKISCKASGYSFTAYTMNWVKQSHGKNLEWIGLINPYNGGTSYNQKFKGKATLTGDKSSSTAYMELLSVTSEDSAVYFCAREGNYYGSRGDFDYWGQGTTLTVSS VL: DILLTQSPAILSVSPGERVSFSCRASQTIVTNILWYQQRTNGSPRLLIRYASESISGIPSRFSGSGSGTDFTLSINSVESEDIAHYYCQQSHSWPFTFGSGTKLEIK = 89100
• Antibody 4-hu7 (antibody, human IgG4 S228P, kappa, V domains shown, Humanized Antibody 4; heavy chain IgG4 with S228P already in the entry) VH: EVQLVQSGAEVKKPGSSVKVSCKASGYTFSSFSIEWVRQAPGQGLEWMGEILPGSNSTNYNEKFKGRVTITADESTSTAYMELSSLRSEDTAVYYCSSYWFAYWGQGTLVTVSS VL: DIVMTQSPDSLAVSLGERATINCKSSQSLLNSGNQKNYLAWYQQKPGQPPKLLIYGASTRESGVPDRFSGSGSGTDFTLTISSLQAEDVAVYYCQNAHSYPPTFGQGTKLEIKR = 277000

Turning now to a further binder:
INPUT: GET /values?readout=kon&item= Antibody 2 (antibody, V domains shown, Murine monoclonal antibody from hybridoma ascites; also called murine antibody Antibody 2) VH: QVQLQQSGAELTKPGASVKISCKATGYTFSTFAIDWIKQRPGHGLAWIGEILPGGNNTNYNEKFKGKATFTADTSSNTAYMHLSSLTSEDSAVYYCSTYWFAYWGQGTLVTVSA VL: DIVMTQSPSSLSVSAGEKVTMSCKSSQSLLNSGNQKNYLAWYQQKPGQPPKLLMYGASTRESGVPDRFTGSGSGTDFTLTISSVQAEDLAVYYCQNAHSYPPAFGAGTKLELK
OUTPUT: 90500
